# Test system: DeltatarO mutant
# protocol-details: S. aureus survival, RN4220 and DeltatarO strains – OD600, teichoic acid synthesis inhibitors, primary screen (AID 463173)
# details: S. aureus RN4220 wild type/DeltatarO growth, OD600, 18 h, stronger effect = lower value, screened at 18.75 µg/mL (by protocol)
About 4,300 (8.3%) of roughly 52,000 compounds were called active. This is one part of a sample in which actives are shown more often than they occur.
Each record is given 1 if its reported survival is strictly below 80%. Records at or above 80% are given 0.

molecule | group
COc1ccc(NC(=O)Cn2c(=O)n(Cc3nc(-c4ccccc4)no3)c(=O)c3cc4c(cc32)OCO4)c(OC)c1 | 0
CCOc1ccccc1NC(=O)c1nnn(CC(=O)Nc2ccc(OC)c(OC)c2)c1N | 0
CCOC(=O)c1cccc(NC(=O)Nc2c(C)n(C)n(-c3ccccc3)c2=O)c1 | 0
O=C(Cn1nc(C(F)(F)F)c2c1CCCC2)Nc1ccc(F)c(Cl)c1 | 1
COC(=O)c1cc(NC(=O)Cn2nc(C)n3cccc3c2=O)cc(C(=O)OC)c1 | 0
Cc1ccc(C(=O)NCC(=O)OCc2cc(=O)n3ccsc3n2)cc1 | 1
O=C(c1ccccc1/S(=N/S(=O)(=O)c1ccccc1)N1CCOCC1)N1CCOCC1 (configuration not stated) | 1
CCc1nc(Nc2ccc(F)c(Cl)c2)c2c3c(sc2n1)CCCC3 | 1
CCOc1ccc(NC(=O)CC2C(=O)N(c3ccccc3)C(=O)N2CCc2ccc(OC)cc2)cc1 (configuration not stated) | 1
CNS(=O)(=O)c1cn(CC(=O)Nc2ccc(C)c(N(C)C)c2)cc1S(=O)(=O)NC | 0
COc1cccc(N2CC(NC(=O)c3ccc(S(=O)(=O)N4CCOCC4)cc3)CC2=O)c1 (configuration not stated) | 0
N#Cc1nc(-c2ccc(COc3ccccc3)o2)oc1N1CCCCC1 | 1
COc1ccc(OCc2ccc(-c3nc(C#N)c(N4CCCCC4)o3)o2)cc1 | 1
Cc1ccc(NC(=O)C(Cc2ccccc2)NS(=O)(=O)c2cccc3nsnc23)c(C)c1 (configuration not stated) | 0
Cc1ccc(Cl)cc1NC(=O)C(C)n1nnc2sc3c(c2c1=O)CCCC3 (configuration not stated) | 1
COc1ccccc1OCC(=O)NC1CC(=O)N(c2ccc3c(c2)OCCO3)C1 (configuration not stated) | 1
O=C(NCCCc1ccccc1)c1ccc2c(c1)sc1nc(-c3ccc(F)cc3)cn12 | 1
Cc1cc(Nc2cccc(O)c2)c2cccc(Br)c2n1 | 1
O=S(=O)(c1ccc(Cl)cc1)c1nnn2c1nc(NCc1ccc3c(c1)OCO3)c1sccc12 | 1
CC(CN)(NS(=O)(=O)c1ccccc1)c1ccccc1 (configuration not stated) | 0
CC(=O)Nc1ccc(Nc2ncnc3sc4c(c23)CCCC4)cc1 | 1
COc1ccc(Nc2ncnc3sc4c(c23)CCCC4)cc1 | 1
CCOC(=O)c1cc2c(ccn2-c2ccc(F)cc2)n1CC(=O)N1C(C)CCCC1C (configuration not stated) | 0
O=C(NCc1ccco1)c1ccc2c(c1)N(Cc1ccccc1F)C(=O)c1ccccc1S2=O (configuration not stated) | 0
CCOC(=O)N1CCc2c(sc(NCc3ccc(N(C)C)cc3)c2C(=O)Nc2ccc(OC)cc2)C1 | 1
CCC(Sc1nc2ccncc2[nH]1)C(=O)Nc1cc(C)ccc1C (configuration not stated) | 0
Cc1ccc(-c2n[nH]c3c2C(c2ccc(C(C)(C)C)cc2)NC3=O)cc1 (configuration not stated) | 0
COC(=O)c1cc(NC(=O)Cn2nc(-c3ccc(C)c(C)c3)ccc2=O)cc(C(=O)OC)c1 | 1
CCc1ccc(-c2cn3c(n2)sc2cc(C(=O)NCCCc4ccccc4)ccc23)cc1 | 1
O=C(Cn1nc(-c2ccccc2)c2c(c1=O)CCCC2)Nc1ccc(F)c(Cl)c1 | 1
O=c1n(Cc2ccc(F)cc2Cl)c2ccccc2c2nc(-c3ccccc3)nn12 | 0
O=C(Cn1c(=O)nc(-c2ccccc2)c2cc(Cl)ccc21)Nc1ccc(F)c(Cl)c1 | 1
CCc1nn(Cc2c(C)cc(C)cc2C)c(=O)c2cc3cc(C)ccc3n12 | 0
O=C(NCCCN1CCCCCC1)c1ccc2c(c1)sc1nc(-c3ccccc3)cn12 | 1
CCN(CC)CCNC(=O)CCn1c(=O)c2cccn2c2cccnc21 | 0
O=C(NC1CCCCC1)c1ccc2c(c1)sc1nc(-c3ccccc3)cn12 | 1
CC(C)NC(=O)CN1CCN(c2ccc(F)cc2)CC1 | 0
Cc1ccc(NC(=O)CSc2nc3ccc(NC(=O)COc4ccc(C)cc4)cc3s2)cc1 | 0
CCCc1nn2c(=O)cc(COC(=O)c3ccc(NC(=O)c4cccs4)cc3)nc2s1 | 1
O=C(CNCCCN1CCOCC1)Nc1ccc(OC(F)(F)F)cc1 | 0

----------
Parameter: survival. Scope: all listed entries.
# Tested on: DeltatarO mutant
# protocol-details: S. aureus survival, RN4220 and DeltatarO strains – OD600, teichoic acid synthesis inhibitors, primary screen (AID 463173)
# details: S. aureus RN4220 wild type/DeltatarO growth, OD600, 18 h, stronger effect = lower value, screened at 18.75 µg/mL (by protocol)
The campaign covered roughly 52,000 compounds. About 4,300 (8.3%) were called active. The entries come from a sample that favours actives as a whole.
endpoint: survival (%)

test-smiles | endpoint | quantitative-readout
CCc1ccc(OCC(=O)Nc2cc3oc4ccccc4c3cc2OC)c(Br)c1 | survival | 123
Cc1nn2c(-c3ccccc3)cc(-c3ccccc3)nc2c1-c1ccc(Cl)cc1 | survival | 78
COc1cc2c(cc1NC(=O)COc1ccc(Br)cc1)oc1ccccc12 | survival | 72
CN(CCCN1C(=O)c2ccccc2C1=O)CCCN1C(=O)c2ccccc2C1=O | survival | 93
Nc1nc2nc(-c3ccccc3)cc(=O)n2[nH]1 | survival | 84
O=C(c1cccc(C(F)(F)F)c1)C1CCN(C(=O)N2CCOCC2)CC1 | survival | 103
COc1cc2c(cc1NC(=O)COc1ccc(Cl)cc1)oc1ccccc12 | survival | 46
Cc1cccc(-c2cc3nc(-c4ccccc4)cc(=O)n3[nH]2)c1 | survival | 97
CCc1ccc(CNC(=O)c2c(C)oc3ncnc(N4CCOCC4)c23)cc1 | survival | 128
Cc1[nH]n2c(=O)cc(-c3ccccc3Cl)nc2c1-c1ccccc1 | survival | -3
COc1cc2c(cc1NC(=O)COc1ccc(Br)cc1C)oc1ccccc12 | survival | 119

----------
# System: DeltatarO mutant
# protocol-details: S. aureus survival, RN4220 and DeltatarO strains – OD600, teichoic acid synthesis inhibitors, primary screen (AID 463173)
# details: S. aureus RN4220 wild type/DeltatarO growth, OD600, 18 h, stronger effect = lower value, screened at 18.75 µg/mL (by protocol)
Out of some 52,000 compounds screened, about 4,300 (8.3%) were called active. The entries come from a sample that favours actives as a whole.
Each record is given satisfied if its reported survival is strictly below 70%. Records at or above 70% are given not satisfied.

molecule | group
Cc1ccc(-c2cc(NC(=O)COc3c(C)cc(C)cc3C)on2)cc1 | satisfied
CCN(CC)c1ccc(/C=C2/SC(=O)NC2=O)cc1 | satisfied
CCn1c(SCC(N)=O)nc2ccccc2c1=O | not satisfied
CCC(C)NC(=O)c1cccc(NC(=O)c2nsc3ccccc23)c1 (stereo unspecified) | not satisfied
O=C(NCc1cccc(F)c1)c1ccc(NC(=O)c2nsc3ccccc23)cc1 | satisfied
CCOc1ccccc1NC(=O)c1ccc2c(Cl)c3c(nc2c1)CCCC3 | satisfied
CCC1=C(c2ccc(C)cc2)S(=O)(=O)N=C1N1CCC(C(=O)Nc2ccccc2C(=O)OC)CC1 | not satisfied
COc1ccccc1NC(=O)c1c(-c2ccc(C)cc2)nnc2ccccc12 | not satisfied
CCN(CC)S(=O)(=O)c1ccc2c(c1)N(CC(=O)NCCc1ccccc1)C(=O)CO2 | not satisfied
O=C(CSc1nc2c(oc3ccccc32)c(=O)n1-c1ccccc1)Nc1ccccc1F | satisfied
COc1ccc2nc(N(Cc3cccnc3)C(=O)c3ccc(Cl)cc3)sc2c1 | not satisfied
COc1ccccc1N1CCN(c2nc3ccc(C(=O)c4ccccc4)cc3n3c(C)nnc23)CC1 | satisfied
COc1ccc(/C=C\c2onc(C)c2S(=O)(=O)N2CCC(C(=O)Nc3ccc(Cl)cc3)CC2)cc1 | satisfied
CN1C(C(=O)Nc2cccc(O)c2)=CC(c2ccco2)=NS1(=O)=O | not satisfied
CC(=O)Nc1ccc(S(=O)(=O)N2CCC(N3CCN(Cc4ccc(C)cc4)C(=O)C3=O)CC2)cc1 | not satisfied
O=C1c2ccccc2-c2nc3ccccc3c(=O)n21 | not satisfied
Cc1nnc2c(N3CCN(c4ccccc4F)CC3)nc3ccc(C(=O)c4ccccc4)cc3n12 | not satisfied
CC(NC(=O)c1cccc(NC(=O)c2nsc3ccccc23)c1)c1ccccc1 (stereo unspecified) | not satisfied

----------
# System: DeltatarO mutant
# protocol-details: S. aureus survival, RN4220 and DeltatarO strains – OD600, teichoic acid synthesis inhibitors, primary screen (AID 463173)
# details: S. aureus RN4220 wild type/DeltatarO growth, OD600, 18 h, stronger effect = lower value, screened at 18.75 µg/mL (by protocol)
The whole screen tested about 52,000 compounds, of which about 4,300 (8.3%) were called active. This is one part of a sample in which actives are shown more often than they occur.

compound | target-system | survival (%)
COc1ccccc1C(=O)Nc1cc2c(cc1N1CCCCC1)n(C)c(=O)n2C | DeltatarO mutant | 78
COc1ccc(/C=C\c2onc(C)c2S(=O)(=O)N2CCC(C(=O)Nc3cccc(OC)c3)CC2)cc1 | DeltatarO mutant | 97
Cn1c(=O)c(=O)n(C)c2cc(N3CCCC3)c(NC(=O)c3ccccc3Cl)cc21 | DeltatarO mutant | 90
CN1CCN(C(=O)C2CCCCC2C(=O)O)CC1 (centres undefined) | DeltatarO mutant | 78
Cn1nc(-c2ccc(N3CCCCC3)c(NC(=O)c3ccc(Cl)cc3)c2)c2ccccc2c1=O | DeltatarO mutant | 66
Cc1cccc(C)c1NC(=O)c1nc(S(C)(=O)=O)ncc1N(Cc1ccc(F)cc1)Cc1ccco1 | DeltatarO mutant | 46
COc1nnc(-c2ccc(N3CCCCC3)c(NC(=O)c3ccccc3)c2)c2ccccc12 | DeltatarO mutant | 0
COc1nnc(-c2ccc(N3CCCCC3)c(NC(=O)c3ccc(Cl)cc3)c2)c2ccccc12 | DeltatarO mutant | 107
COc1nnc(-c2ccc(N3CCCCC3)c(NC(=O)c3ccccc3Cl)c2)c2ccccc12 | DeltatarO mutant | -1
